Data provenance is patent US8247211B2.

I'd appreciate it if you could supply MIC Staphylococcus aureus (ATCC 29213) values for the items below.
# Tested on: Staphylococcus sp.
# Experiment summary: In vitro antibacterial evaluation: minimum inhibitory concentration (MIC), broth dilution method
# Type: cell-based
# Condition details: broth dilution, 5×10^5 CFU/mL, 18 hours at 35° C.

Study these solved cases before continuing.
- CC(c1ccccc1)C1NC(=O)CNC(=O)C(CO)NC(=O)C(C(O)C2CNC(=N)N2C2OC(CO)C(O)C(O)C2O)NC(=O)C(C(O)C2CNC(=N)N2)NC(=O)C(Cc2ccc(OC3OC(CO)C(OC4OC5COC(c6cccc(-c7ccccc7)c6)OC5C(O)C4O)C(O)C3O)cc2)NC1=O (stereo not drawn): 1 µg/mL
- CSc1ccc(C2OCC3OC(OC4C(CO)OC(Oc5ccc(CC6NC(=O)C(C(C)c7ccccc7)NC(=O)CNC(=O)C(CO)NC(=O)C(C(O)C7CNC(=N)N7C7OC(CO)C(O)C(O)C7O)NC(=O)C(C(O)C7CNC(=N)N7)NC6=O)cc5)C(O)C4O)C(O)C(O)C3O2)cc1[N+](=O)[O-] (stereo not drawn): 1 µg/mL

## Input Respond only with MIC Staphylococcus aureus (ATCC 29213) recorded for CC(c1ccccc1)C1NC(=O)CNC(=O)C(CO)NC(=O)C(C(O)C2CNC(=N)N2C2OC(CO)C(O)C(O)C2O)NC(=O)C(C(O)C2CNC(=N)N2)NC(=O)C(Cc2ccc(OC3OC(CO)C(OC4OC5COC(c6ccc7ccccc7c6)OC5C(O)C4O)C(O)C3O)cc2)NC1=O (stereo not drawn)
## Output 1 µg/mL
